FYI, the data here is from PubChem BioAssay.

# METHOD: resazurin metabolic signal in A549 cells – cell-based, resazurin fluorescence, 24 h, PK04 Diversity Set, profiling panel (AID 1171)
# TEST_CONDITIONS: A549 viability, higher = more signal, called active from +8 up or from −8 down
Threshold-based label: z-score under -0.5 gives 1.0, z-score not under -0.5 gives 0.0.

COMPOUND	CAT
O=C(NCCN1CCOCC1)[C@@H]1c2ccccc2C(=O)N(Cc2cc(C(F)(F)F)cc(C(F)(F)F)c2)[C@H]1c1ccc(CO)cc1	0.0
COC(=O)C(CC#Cc1ccc2c(c1)[C@]1(C(=O)N2)[C@H](c2ccccc2OCCO)N2[C@H](c3ccccc3)[C@H](c3ccccc3)OC(=O)[C@H]2[C@@H]1C(N)=O)C(=O)OC	1.0
O=C1O[C@H](c2ccccc2)[C@H](c2ccccc2)N2[C@H]1[C@@H](C(=O)NC[C@H](O)c1ccccc1)[C@]1(C(=O)Nc3ccccc31)[C@H]2c1ccc(O)cc1	0.0
CO[C@H]1O[C@H](CO)[C@@H](OC(=O)Nc2cccc(F)c2)[C@H](OC(=O)Nc2ccccc2)[C@H]1OC(=O)Nc1ccccc1	1.0
CC1CC/C=C\[C@H]2OC34C=CCN(c5ccc6ccccc6c5)C(=O)[C@H]3N(CCO)C(=O)[C@@H]4C2C(=O)O1 (stereo partly drawn)	1.0

Answer whether the compound "C=C[C@H](C)[C@@H](OC(=O)Nc1ccc(SC)cc1)c1ccc(O)c2ccccc12" has z-score strictly less than -0.5
1.0

State whether -0.5 exceeds z-score recorded for "[N-]=[N+]=Nc1ccccc1[C@H]1OC(c2ccc(OCCCO)cc2)=N[C@@]1(CCS(=O)(=O)c1ccccc1)C(=O)NCc1ccccc1" .
0.0

###

# METHOD: probe aCHRDL2 binding to arrayed compounds – biochemical, biotinylated probe, 635/667 nm fluorescence, primary screen (AID 1100)
# TEST_CONDITIONS: small-molecule microarray, higher = more signal
Could you label it class 1 if measured composite z-score is 0.6 or higher, and class 0 otherwise?

COMPOUND	CAT
COc1ccc(C#Cc2ccc3c(c2)[C@]2(C(=O)N3)[C@H](c3ccc(O)cc3)N3[C@H](c4ccccc4)[C@H](c4ccccc4)OC(=O)[C@H]3[C@@H]2C(=O)N2CCc3cc(OC)c(OC)cc3C2)cc1	class 0

Could you verify whether the entry "CCOC(=O)C[C@H]1[C@H](OC(=O)c2ccc(-c3ccccc3)cc2)[C@@H](NC(=O)c2ccccc2)c2cc(OCCCO)ccc2N1C(=O)Cc1ccc(OC)cc1" shows composite z-score of no less than 0.6?
class 0

# check: composite z-score of "C=CC[C@]1(C(N)=O)COC(c2ccc(OCCCO)cc2)=N1" is greater than or equal to 0.6
class 0

###

# METHOD: FRG1 expression reporter modulators in myotubes – cell-based, C2C12 myotubes, firefly/Renilla luciferase, luminescence, FRG1 inhibition for FSHD, primary screen (AID 1084)
# TEST_CONDITIONS: FRG1 promoter luciferase, higher = more signal, called active from +8 up or from −8 down
So basically: z-score at 0.2 or higher? That is True. Lower than 0.2? That is False.

COMPOUND	CAT
[N-]=[N+]=Nc1ccccc1[C@H]1OC(c2ccc(OCCCO)cc2)=N[C@@]1(CCS(=O)(=O)c1ccccc1)C(=O)NCc1ccccc1	True

Reported z-score at or above 0.2? "C=CCOC(=O)[C@H]1[C@@H]2C(=O)O[C@@H](c3ccccc3)[C@@H](c3ccccc3)N2[C@@H](c2ccc(OCCOC(=O)[C@H]3C[C@H]4C(=O)N[C@@H](CCCCN(C)C)C(=O)N4[C@H]3c3cccc(OCCO)c3)cc2)[C@]12C(=O)Nc1ccc(I)cc12"
False

Assess whether reported z-score for "COC(=O)c1c2oc(c1C(=O)OC)C(=O)NC1(CCCCC1)c1cn(nn1)C[C@H](Cc1ccccc1)NC(=O)N[C@H](CO)CC2" sits at 0.2 or higher.
False

Check this compound for z-score at or above 0.2: CC(C)N1CC=CC23O[C@@H]4C=CCOC(=O)[C@@H]4[C@H]2C(=O)N(CCCCCO)[C@@H]3C1=O (some centres not stated)
False

Hi, just wondering whether "O=C1[C@H]2C=C(I)[C@H](C[C@@H]2OCCCCO)[C@@]12CO2" shows z-score of 0.2 or higher.
True

Evaluate "C[N+](C)(C)CCCC[C@@H]1NC(=O)[C@H]2C[C@@H](C(=O)NCCCCCCNC(=O)CS)[C@@H](c3ccc(O)cc3)N2C1=O" : z-score at minimum 0.2?
False

Exam item: decide whether the reported z-score for "O=C1C[C@@](C(=O)NCc2ccccc2)(c2ccc([N+](=O)[O-])cc2)[C@@H](c2ccc(CO)cc2)N1CC12CC3CC(CC(C3)C1)C2" is at least 0.2.
False

Has "O=C1O[C@@H](c2ccccc2)[C@@H](c2ccccc2)N2[C@@H](c3ccccc3OCCO)[C@]3(C(=O)Nc4ccccc43)[C@@H](C(=O)O)[C@H]12" a recorded z-score greater than or equal to 0.2?
False

Hi team, for CS(=O)(=O)CCOC(=O)C1=CC(CCCO)=CC(C2CC2)N(Cc2cc3c(cc2Br)OCO3)C=C1C(=O)OCCS(C)(=O)=O (configuration not stated) , is the recorded z-score at or above 0.2?
False

State whether the measured z-score reaches 0.2, counting equality as reaching it, for "COCCOC(=O)N1C(=O)[C@@]2(c3cc(C#CC4=CCCCC4)ccc31)[C@H](c1ccc(OCCO)cc1)N1[C@H](c3ccccc3)[C@H](c3ccccc3)OC(=O)[C@H]1[C@@H]2C(=O)N1CCc2cc(OC)c(OC)cc2C1"
False

###

# METHOD: small molecules captured by biotinylated probe aFSTL3 – biochemical, small-molecule microarray, fluorescence 635/667, stem cell growth factor project, primary screen (AID 1064);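 note: measures binding of the biotinylated anti-FSTL3 antibody to printed compounds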
# TEST_CONDITIONS: higher = more signal
Cut-off -0.2 on composite z-score, inclusive. At or above means true (1); below means false (0).

Study these solved cases before continuing.
>>> print(df.to_string())
                                   compound        cat
0  CC(C)(C)OC(=O)CC[C@]1(C(N)=O)N=C(c2ccc(OCCCO)cc2)O[C@H]1c1ccccc1   true (1)
1       CC(C)C(=C=CC[C@H](O)c1ccc(CO)o1)CCO   true (1)
2  CCCCC(=C=CC[C@H](O)c1cccc(OCCO)c1)C[C@H](O)c1ccccn1  false (0)

Let us examine a further case.
Test whether the compound O=C1NC(=O)C2C1C=CC(C(O)C=Cc1ccc([N+](=O)[O-])cc1)N2Nc1ccc(Cl)cc1Cl (stereo not given) records composite z-score of -0.2 or higher.
true (1)

###

# Test system: XIP peptide (Xip251-270)
# METHOD: compounds binding XIP fragment 251-270 – biochemical, small-molecule microarray, fluorescence 635/667 nm, 0.5 µg/mL protein, primary screen (AID 1183)
# TEST_CONDITIONS: fluorescence 635 nm, higher = more signal
Each entry falls in a class defined on composite z-score; the bands are bottom bin = under 0.5, middle bin = from 0.5 up to 0.8, top bin = 0.8 and over

The examples below pair each entry with its known result.
MOLECULE	CAT
CC(C)CCC[C@@H](C)[C@H]1CC[C@@]2(C)C3=C(CC[C@]12C)[C@@]1(C)CC[C@H](OC(=O)c2ccc(C(F)(F)F)nc2)C(C)(C)C1CC3 (stereo partly drawn)	bottom bin
COc1ccc(-c2cc3c(c(Cc4ccccc4)n2)[Si](C(C)C)(C(C)C)OC3)cn1	bottom bin
C#CCN1[C@@H](Cc2ccc(O)cc2)C(=O)O[C@H](Cc2ccccc2)[C@@H]1/C=C/C1CC1	bottom bin

Class (by measured composite z-score) for "CCCCC(=C=CC[C@@H](O)c1cccc(OCCO)c1)C[C@@H](O)c1ccccn1"
middle bin

Please classify: "COc1ccccc1CN1C(=O)c2ccccc2[C@@]2(Cc3ccccc3N(CCCN(C)C)C2=O)[C@@H]1c1ccc(CO)cc1"
bottom bin

Textbook exercise: identify the category of the molecule given here, "O=C1[C@H]2C=C(I)[C@H](C[C@@H]2OCCCCO)[C@@]12CO2" , according to its measured value.
bottom bin

Which class holds "COc1ccc([Si](C)(C)[C@@H]2[C@@H](CC(=O)N3Cc4ccccc4C[C@H]3CO)O[C@]3(C(=O)N(Cc4cccc(N5CCC5=O)c4)c4ccccc43)[C@H]2C)cc1" ?
middle bin

Which bin, given its composite z-score, does "COCCOC(=O)N1C(=O)[C@@]2(c3cc(C#CC4(O)CCCCCC4)ccc31)[C@H](C(=O)Nc1nc3ccccc3s1)[C@H]1C(=O)O[C@H](c3ccccc3)[C@H](c3ccccc3)N1[C@@H]2c1ccc(OCCO)cc1" occupy?
middle bin

Form: Item = "COCCOC(=O)N1C(=O)[C@@]2(c3cc(C#CC4=CCCCC4)ccc31)[C@H](c1ccc(OCCO)cc1)N1[C@H](c3ccccc3)[C@H](c3ccccc3)OC(=O)[C@H]1[C@@H]2C(=O)N1CCc2cc(OC)c(OC)cc2C1" ; Class = ?
middle bin

Dear colleague, I would appreciate it if you could identify the bin for "O=C(O)[C@H]1C[C@H]2C(=O)N3CCC[C@H]3C(=O)N2[C@H]1c1ccc(O)cc1" and reply at your convenience.
bottom bin

Band assignment needed for "CN(C)CCCCCCNC(=O)[C@@H]1C[C@@H]2C(=O)N3CCC[C@H]3C(=O)N2[C@@H]1c1ccc(O)cc1" please.
top bin

Exercise: read the entry "O=C(CS)NCCCCCNC(=O)[C@H]1C[C@H]2C(=O)NCC(=O)N2[C@H]1c1cccc(OCCO)c1" and state which class it falls under.
bottom bin

Tag the class for "COc1ccc([Si](C)(C)[C@@H]2[C@@H](CC(=O)N3CCC[C@H]3CO)O[C@]3(C(=O)N(Cc4cccc(I)c4)c4ccccc43)[C@H]2C)cc1"
middle bin
